Sourced from the supplement of paper PMC10567573

B1: PBXIP1 (parent)
chain: EKQKQPRWREGTKDSHDPLPSWAE

Variants of: B1
MEASUREMENT DESCRIPTION: protein stability index of a GFP-peptide fusion (GPS, HEK-293T) (PSI 1-6); higher = more stable;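 note: lentivirally expressed fusions sorted by FACS into six bins by GFP to DsRed ratio, PSI derived from sequencing read proportions per bin multiplied by bin number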
RUN CONDITIONS: c terminus: a fixed tail appended
Field: protein stability index. Provide a value for each of the variants that follow.
Numbers only.

L19T : 2.27
Q5E : 2.66
P6F : 2.43
K13A : 2.15
W8K : 2.46
R7M : 1.94

Could you tell me protein stability index for each of these variants? They are listed below.
1. K2I
2. E24N
3. E24R
4. E1G

2.63
3.02
3.34
1.66
